Tested On: Luciferin 4-monooxygenase (Photinus pyralis)
Assay Info: qHTS assay to identify small molecule inhibitors of firefly luciferase (AID 1224835); also: nearly all actives have a fitted effect of over 25% in size
Applied Conditions: purified P. pyralis luciferase, luminescence inhibition; series mostly up to 115 µM
Records with an inconclusive call do not appear. Active and inactive are the calls of the source. Calls follow the shape of the dose curve; as a rule, active = well fitted inhibition curve with a large enough effect in the repeat runs; inconclusive = weak or mixed curves; inactive = flat fitted curve, though single readings scatter.
Entry note: the call must match one of active, inactive

Molecule: CC(C)C[C@H](NC(=O)OCC1c2ccccc2-c2ccccc21)C(=O)O
Answer Label: active
--
Molecule: CCCc1c2oc(C(=O)O)cc(=O)c2cc2c(=O)cc(C(=O)O)n(CC)c12
Answer Label: inactive
--
Molecule: CO[Si](C)(C)OC
Answer Label: inactive
--
Molecule: O=C1CCCCC1C1CCCCC1 (configuration not stated)
Answer Label: inactive
--
Molecule: CCOc1ccccc1N
Answer Label: inactive
--
Molecule: Cc1ccc(C(C)C)cc1O
Answer Label: inactive

Prompt: How was CC(C)C(=O)OCC(C)(C)C(O)C(C)C (configuration not stated) classified in this test?
Completion: inactive

Attribution: PubChem BioAssay (Tox21)
